Tested on: BMSC (primary human bone marrow mesenchymal stromal cells)
Assay: absolute EC50 for viability; higher = less sensitive
result-type: absolute EC50 for viability

Consider the reported absolute EC50 for viability for these compounds:
Short answer for CCCCNc1ncc(C(=O)NCc2ccc(-n3ccnc3)cc2)c(NC2CCC(O)CC2)n1 (stereo unspecified) : absolute EC50 for viability was > 2.5 µM

Short answer for CO[C@H](C(=O)[C@@H](O)[C@@H](C)O)[C@@H]1Cc2cc3cc(O[C@H]4C[C@@H](O[C@@H]5C[C@@H](O)[C@H](O)[C@@H](C)O5)[C@H](O)[C@@H](C)O4)c(C)c(O)c3c(O)c2C(=O)[C@H]1O[C@H]1C[C@@H](O[C@@H]2C[C@@H](O)[C@@H](O[C@@H]3C[C@](C)(O)[C@H](O)[C@@H](C)O3)[C@@H](C)O2)[C@H](O)[C@@H](C)O1 : absolute EC50 for viability was > 10 µM

Short answer for CCN(CC)CCNC(=O)c1c(C)[nH]c(/C=C2\C(=O)Nc3ccc(F)cc32)c1C : absolute EC50 for viability was > 1 µM

Short answer for CCS(=O)(=O)N1CCN(c2ccc(Nc3ncc(C(N)=O)c(NC4CC4)n3)cc2)CC1 : absolute EC50 for viability was > 10 µM

Short answer for CC(C)N(C[C@H]1O[C@@H](n2cnc3c(N)ncnc32)[C@H](O)[C@@H]1O)[C@H]1C[C@@H](CCc2nc3cc(C(C)(C)C)ccc3[nH]2)C1 : absolute EC50 for viability was > 1 µM

Alright, here's another compound for you.
Short answer for CNC(=O)c1ccccc1Nc1nc(Nc2ccc3c(c2OC)CCC[C@H](N2CCN(CCO)CC2)C3)ncc1Cl : absolute EC50 for viability was 1.17 µM

* * *

# absolute EC50 for viability values compiled below
Test system: BMSC (primary human bone marrow mesenchymal stromal cells)
Experiment: absolute EC50 for viability; higher = less sensitive

Short answer for Cc1c2oc3c(C)ccc(C(=O)N[C@@H]4C(=O)N[C@H](C(C)C)C(=O)N5CCC[C@H]5C(=O)N(C)CC(=O)N(C)[C@@H](C(C)C)C(=O)O[C@@H]4C)c3nc-2c(C(=O)N[C@@H]2C(=O)N[C@H](C(C)C)C(=O)N3CCC[C@H]3C(=O)N(C)CC(=O)N(C)[C@@H](C(C)C)C(=O)O[C@@H]2C)c(N)c1=O : absolute EC50 for viability was 50.7 nM

Short answer for CCCc1cc(C)[nH]c(=O)c1CNC(=O)c1cc(-c2ccnc(N3CCN(C)CC3)c2)cc2c1cnn2C(C)C : absolute EC50 for viability was > 1000 nM

Short answer for COc1cc(CCc2cc(NC(=O)c3ccc(N4CC(C)NC(C)C4)cc3)n[nH]2)cc(OC)c1 (configuration not stated) : absolute EC50 for viability was > 1000 nM

Short answer for CNC(=O)c1cc(COc2nnc(Nc3ccc(Cl)cc3)c3ccoc23)ccn1 : absolute EC50 for viability was > 10000 nM

Short answer for C=CC(=O)Nc1cc(Nc2nccc(-c3cn(C)c4ccccc34)n2)c(OC)cc1N(C)CCN(C)C : absolute EC50 for viability was > 2500 nM

Short answer for CN(C)Cc1ccc(S(=O)(=O)n2ccc(/C=C/C(=O)NO)c2)cc1 : absolute EC50 for viability was 2630 nM

Short answer for COc1cc(OC)cc(N(CCNC(C)C)c2ccc3ncc(-c4cnn(C)c4)nc3c2)c1 : absolute EC50 for viability was > 1000 nM

* * *

System: BMSC (primary human bone marrow mesenchymal stromal cells)
Test: absolute EC50 for viability; higher = less sensitive
# absolute EC50 for viability values compiled below

Short answer for CO[C@H]1CC[C@H](N2C(=O)CNc3ncc(-c4ccc(C(C)(C)O)nc4)nc32)CC1 : absolute EC50 for viability was 6.04 µM

Short answer for O=C(Nc1c[nH]nc1-c1nc2ccc(CN3CCOCC3)cc2[nH]1)NC1CC1 : absolute EC50 for viability was 0.254 µM

Short answer for CCC/C=C/C=C/C(=O)O[C@H]1/C(=C/C(=O)OC)C[C@H]2C[C@H]([C@@H](C)O)OC(=O)C[C@H](O)C[C@@H]3C[C@H](OC(C)=O)C(C)(C)[C@](O)(C[C@@H]4C/C(=C/C(=O)OC)C[C@H](/C=C/C(C)(C)[C@]1(O)O2)O4)O3 : absolute EC50 for viability was > 0.1 µM

* * *

# absolute EC50 for viability values compiled below
Tested on: BMSC (primary human bone marrow mesenchymal stromal cells)
Assay: absolute EC50 for viability; higher = less sensitive

Consider the reported absolute EC50 for viability for these compounds:
Short answer for S=C(NCc1ccc2c(c1)OCO2)N1CCN(c2ncnc3c2oc2ccccc23)CC1 [Amuvatinib] : absolute EC50 for viability was > 10 µM

Short answer for CC[C@@H](C(=O)[C@@H](C)[C@@H](O)[C@H](C)[C@@H]1O[C@@H]([C@@H](CC)C(=O)O)CC[C@@H]1C)[C@H]1O[C@]2(C=C[C@@H](O)[C@]3(CC[C@@](C)([C@H]4CC[C@](O)(CC)[C@H](C)O4)O3)O2)[C@H](C)C[C@@H]1C [Salinomycin] : absolute EC50 for viability was 1.53 µM

Short answer for CC/C(=C(\c1ccccc1)c1ccc(OCCN(C)C)cc1)c1ccccc1 [Tamoxifen] : absolute EC50 for viability was > 10 µM

Short answer for Cn1cc(C[C@@H](N)C(=O)O)c2ccccc21 [1-methyl-D-tryptophan] : absolute EC50 for viability was > 5 µM

Short answer for Cc1cc2c(C(C)C)c(O)c(O)c(C=O)c2c(O)c1-c1c(C)cc2c(C(C)C)c(O)c(O)c(C=O)c2c1O [AT 101] : absolute EC50 for viability was 28.1 µM

---
Short answer for Cc1cc(-c2nc(-c3ccc(OC(F)(F)F)cc3)no2)nn1Cc1ccnc(N2CCN(C3CC3)CC2)c1 [BAY 87-2243] : absolute EC50 for viability was > 1 µM

Short answer for C=C(c1ccc(C(=O)O)cc1)c1cc2c(cc1C)C(C)(C)CCC2(C)C [Bexarotene] : absolute EC50 for viability was > 10 µM

Short answer for O=C(CCCCCCC(=O)Nc1ccccc1)NO [Vorinostat] : absolute EC50 for viability was 2.94 µM

* * *

System: BMSC (primary human bone marrow mesenchymal stromal cells)
Assay: absolute EC50 for viability; higher = less sensitive
result-type: absolute EC50 for viability

Consider the reported absolute EC50 for viability for these compounds:
Form: item Cc1cc(-c2ncc(CC(=O)Nc3ccc(-c4cnccn4)cn3)cc2C)ccn1 ; test system BMSC (primary human bone marrow mesenchymal stromal cells); absolute EC50 for viability: > 10 µM

Form: item Cc1ccc(-c2cc(C(F)(F)F)nn2-c2ccc(S(N)(=O)=O)cc2)cc1 ; test system BMSC (primary human bone marrow mesenchymal stromal cells); absolute EC50 for viability: > 10 µM

Form: item CC(C)NC(=O)COc1cccc(-c2nc(Nc3ccc4[nH]ncc4c3)c3ccccc3n2)c1 ; test system BMSC (primary human bone marrow mesenchymal stromal cells); absolute EC50 for viability: > 5 µM

Form: item CC(C)Cn1cnc2c(N)nc3ccccc3c21 ; test system BMSC (primary human bone marrow mesenchymal stromal cells); absolute EC50 for viability: > 2.5 µM

---
Form: item CC[C@H](CO)Nc1nc(NCc2ccccc2)c2ncn(C(C)C)c2n1 ; test system BMSC (primary human bone marrow mesenchymal stromal cells); absolute EC50 for viability: > 10 µM

Form: item CCCCC(=O)OCC(=O)[C@]1(O)Cc2c(O)c3c(c(O)c2[C@@H](O[C@H]2C[C@H](NC(=O)C(F)(F)F)[C@H](O)[C@H](C)O2)C1)C(=O)c1c(OC)cccc1C3=O ; test system BMSC (primary human bone marrow mesenchymal stromal cells); absolute EC50 for viability: 0.489 µM

Form: item CC[C@H](NC(=O)[C@H](C)NC)C(=O)N1C[C@@H](O)C[C@H]1Cc1c(-c2[nH]c3cc(F)ccc3c2C[C@@H]2C[C@H](O)CN2C(=O)[C@H](CC)NC(=O)[C@H](C)NC)[nH]c2cc(F)ccc12 ; test system BMSC (primary human bone marrow mesenchymal stromal cells); absolute EC50 for viability: > 1 µM

* * *

Test system: BMSC (primary human bone marrow mesenchymal stromal cells)
Test: absolute EC50 for viability; higher = less sensitive
result-type: absolute EC50 for viability (nM)
Kindly provide the numeric value in nM only, without the unit symbol.

Short answer for CC(=O)c1cc2c(o1)C(=O)c1ccccc1C2=O [Napabucasin] : absolute EC50 for viability was 640

Short answer for COCC[n+]1c2c(n(Cc3cnccn3)c1C)C(=O)c1ccccc1C2=O [Sepantronium bromide] : absolute EC50 for viability was 70.5

Short answer for CC(C)(C)C[C@@H]1N[C@@H](C(=O)N[C@H]2CC[C@H](O)CC2)[C@H](c2cccc(Cl)c2F)[C@]12C(=O)Nc1cc(Cl)ccc12 : absolute EC50 for viability was 2490

Short answer for COc1cc2c(Oc3ccc(NC(=O)C4(C(=O)Nc5ccc(F)cc5)CC4)cc3F)ccnc2cc1OCCCN1CCOCC1 [Foretinib] : absolute EC50 for viability was 460

Short answer for CC(C)c1cc(-c2n[nH]c(=O)n2-c2ccc3c(ccn3C)c2)c(O)cc1O [Ganetespib] : absolute EC50 for viability was 86.2

---
Short answer for Cc1cnc(Nc2ccc(OCCN3CCCC3)cc2)nc1Nc1cccc(S(=O)(=O)NC(C)(C)C)c1 [Fedratinib] : absolute EC50 for viability was 1470

Short answer for C1=N/C2=N/c3ccc(OCCN4CCCC4)c(c3)COC/C=C/COCc3cccc(c3)C(=C1)N2 [Pacritinib] : absolute EC50 for viability was 3670
